B1: glmS ribozyme (parent)
chain: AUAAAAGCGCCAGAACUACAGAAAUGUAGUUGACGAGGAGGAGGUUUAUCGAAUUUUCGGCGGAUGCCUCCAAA

Variants of: B1
Test: self-cleavage kobs at 10000 uM GlcN6P; higher = faster cleavage; RNA array
Settings: with glucosamine-6-phosphate
Variants at the floor of the assay were thinned out.
Reported Metric: self-cleavage kobs at 10000 uM GlcN6P (s⁻¹)
Answers are plain numbers, in s⁻¹.

Examples with their reported self-cleavage kobs at 10000 uM GlcN6P follow.
>>> df
                           sequence_variant                        reported_metric  measurement
0                                 U49G U55A  self-cleavage kobs at 10000 uM GlcN6P     0.000891
1                                 G40C A52U  self-cleavage kobs at 10000 uM GlcN6P     7.15e-05
2                                 A15G C67G  self-cleavage kobs at 10000 uM GlcN6P     0.000966
3                             A6G A14C U54G  self-cleavage kobs at 10000 uM GlcN6P     3.47e-05
4                                 A14U A15U  self-cleavage kobs at 10000 uM GlcN6P      0.00202
5                                      U30G  self-cleavage kobs at 10000 uM GlcN6P       0.0157
6                            C11U G29U G40A  self-cleavage kobs at 10000 uM GlcN6P     5.39e-05
7                                 U45A A64C  self-cleavage kobs at 10000 uM GlcN6P     0.000277
8  G7A C8G G9C C10G A12C G13A A14G C16A U17C U31A  self-cleavage kobs at 10000 uM GlcN6P      0.00555
9                             A6G U54A U56A  self-cleavage kobs at 10000 uM GlcN6P     0.000141

# per-item lookup of self-cleavage kobs at 10000 uM GlcN6P; items listed below
1. C11A U30A
2. U56G U69G
3. U56A C67U
4. A12G U57A

result:
[0.000288, "4.12e-05", 0.00679, "4.27e-05"]

# per-item lookup of self-cleavage kobs at 10000 uM GlcN6P; items listed below
1. G13A A14U U56A
2. C50G G63A C68A U69C
3. G32U U49G
4. A12U G43U U46A
5. G29U U54A U65A

result:
0.000631
0.000147
4.7e-05
4.1e-05
0.000456

# per-item lookup of self-cleavage kobs at 10000 uM GlcN6P; items listed below
1. C16A C70U
2. U55G C71U

result:
[0.0015, 0.034]
